All figures here come from paper PMC9482650.

molecular target: SNX27, Q96L92; assay: holdup assay; design: key: below the threshold = too weak to quantify, mostly under pKd 3.1 to 4; details: plain residues with an end cap or a label only (N-terminal biotin on a linker: ahx)
Lab note: anything with pKd at or over 5 counts as yes (1); the rest go in no (0).

Answered examples (5):
YNSFLSVTTV [PDZRN3, Q9UPQ7] | no (0)
VNENQKEYFF [CNTNAP4, Q9C0A0] | no (0)
AKPQPVDSWV [ARVCF, O00192] | yes (1)
HSATSVHTSV [MTMR1, Q13613] | no (0)
PKMKLNETSF [SHKBP1, Q8TBC3] | yes (1)

Test whether the binder KEYDDELTFF [USH1C, Q9Y6N9] records pKd of 5 or higher.
no (0)

Could you tell me if the measured pKd of KDECVIATEV [DLL1, O00548] reaches 5 or more?
no (0)
